Tested on: SK-MEL-28
Test: NCI tumour cell line growth inhibition, 48 h
Structures can show the parent of a compound that is named as a salt. Calls of active or inactive are those of the source. No stated cut-off is given here; in the data, active = GI50 up to about 1.1 µM and inactive = higher.
Labels: active, inactive

compound	group
COc1ccc2c3c(c(C(=O)O)oc13)C(CCC(=O)O)CC2 (configuration not stated)	inactive
CC(=O)OC1=C2CC[C@@H]3C(CC[C@@]4(C)C3CC[C@@H]4OC(C)=O)[C@@]2(C)CC(C#N)C1=O (some centres not stated)	inactive
COC(=O)C1=C(c2ccc3c(c2)OCO3)OC(c2ccc3c(c2)OCO3)C1 (configuration not stated)	inactive
CCOC(=O)C(=O)Nc1ccc(Cl)c(C(F)(F)F)c1	inactive
CON(C)c1nc(N)c(C#N)c(C#N)c1C#N	inactive
Cc1cc(C)c(C(=O)O)c(N)c1O	inactive
O=[N+]([O-])c1ccc(Cl)c(C2CC(c3cccc4ccccc34)=Nc3ccccc3[S+]2[O-])c1 (configuration not stated)	inactive
COc1cc(/C=[N+](\[O-])c2ccccc2Cl)ccc1OC(=S)S	inactive
COc1ccc(OC)c(NC(=O)CCC/C(CC(=O)c2ccc(O)c(OC)c2)=N\Nc2nnc(C)n2N)c1	inactive
C/C(=C\c1ccccc1)n1c(=O)cc(C)n1C	inactive
Cc1cn(C(=O)NC23CC4CC(CC(C4)C2)C3)c(=O)[nH]c1=O	inactive
C=CC[C@H](C)CCC(=O)N1[C@H]2CC3CC[C@@]2(CS1(=O)=O)C3(C)C	inactive
O=C1OC(c2ccccc2)=N/C1=C/C=C/c1ccco1	inactive
COc1cc(/C=C/c2ccc(OC)c(OC)c2)cc(OC)c1 [(E)-3,4,3',5'-TETRAMETHOXYSTILBENE]	inactive
COc1ccc(CNc2nc3ccccc3nc2C(=O)O)cc1	inactive
NCCNCc1c2ccccc2c(CNCCN)c2ccccc12	inactive
NNC1=N/C(=C\c2ccco2)C(=O)N1	inactive
N#CC(C#N)=CNCCN1CCN(C=C(C#N)C#N)CC1	inactive
Cn1c2c(c3ccccc31)CC1c3c(c4ccccc4n3C)CC21 (configuration not stated)	inactive
C=C1CC(OC(C)=O)/C=C(/C)CCC(C(C)(C)O)CC1O (configuration not stated)	inactive
CS(=O)(=O)N1CC(CCl)c2ccc(NO)cc21 (configuration not stated)	inactive
Cc1ccc(S(=O)(=O)NC(=O)NC(CC(N)=O)C(=O)O)cc1 (configuration not stated)	inactive
O=C(OCCN1CCCCCC1)C(c1ccsc1)C1CCCCC1 (configuration not stated) [CETIEDIL CITRATE]	inactive
CC(C)C(Sc1nc(-c2ccccc2)c(-c2ccccc2)[nH]1)C(=O)N/N=C/c1ccc([N+](=O)[O-])cc1 (configuration not stated)	inactive
CC(=N\N=C\c1ccccn1)/C(C)=N/N=C(C)/C(C)=N/N=C(C)/C(C)=N/N=C/c1ccccn1	inactive
CCCCNC(=S)N/N=C/c1cccc(C)n1	inactive
COc1ccc(/C=C2/CCCC/C2=N/O)cc1	inactive
Cc1[nH]c(-c2ccccc2)c(O)c1C(=O)OC1CC(C)CCC1C(C)C (configuration not stated)	inactive
C=C1C(O)C2(O)OCC34C(CC5C(C)=CC(=O)C(O)C5(C)C23)OC(=O)C(OC(=O)C/C=C/CCCCCCCC)C14 (configuration not stated)	active
CN(Cc1ccccc1)C(=S)S [SODIUM BENZYL(METHYL)CARBAMODITHIOATE]	inactive
Oc1cc(-c2ccc(Cl)cc2)nc2ncccc12	inactive
O=S1(=O)c2ccccc2C(Nc2ccccc2)N1c1ccccc1 (configuration not stated)	inactive
C=C(C)C1(Sc2ccc(OC)cc2)CC1	inactive
CSCCCNC(=O)c1csc(-c2csc(CCN)n2)n1	inactive
COc1cc2c(cc1OCCCC(=O)Nc1cc(C(=O)Nc3cc(C(=O)Nc4cc(C(=O)NCCCN(C)C)n(C)n4)n(C)n3)n(C)n1)N=CC1CCCN1C2=O (configuration not stated)	inactive
CC(=O)c1c(C)cn(S(=O)(=O)NC(=O)Nc2nncs2)c1C	inactive
O=S(O)CCCCCSSc1ccccc1	inactive
CN(C)/C=N/NC(=O)/C(C#N)=C/N(C)C	inactive
O=c1c2ccccc2sc2cccc(NCCCN3CCN(CCCNc4cccc5sc6ccccc6c(=O)c45)CC3)c12	inactive
C=C1C(=O)O[C@H]2[C@@H](O)[C@H](C)CCC/C(C)=C/CC[C@@]3(C)O[C@@H]3C[C@@H]12	inactive
O=C1C2C3C=CC(C2C(=O)N1CN1CCOCC1)C1C2C(=O)N(CN4CCOCC4)C(=O)C2C31 (configuration not stated)	inactive
Cc1ccc(NC(=O)C2C(=O)N(c3ccc(C)c(C)c3)C(=O)/C2=N\NC(N)=S)cc1C (configuration not stated)	inactive
